All figures here come from patent US20120245137A1.

target: N-type calcium channel subunits (α1B, α2δ, and β3a) (Homo sapiens, UniProt Q00975); test: Block of Cav2.2 channel, whole cell voltage clamp, manual and PatchXpress; assay type: cell-based; conditions: Table 5; table follows Assay Example 3 (whole cell voltage clamp / PatchXpress); assay not given
Sequence (Q00975 whole entry): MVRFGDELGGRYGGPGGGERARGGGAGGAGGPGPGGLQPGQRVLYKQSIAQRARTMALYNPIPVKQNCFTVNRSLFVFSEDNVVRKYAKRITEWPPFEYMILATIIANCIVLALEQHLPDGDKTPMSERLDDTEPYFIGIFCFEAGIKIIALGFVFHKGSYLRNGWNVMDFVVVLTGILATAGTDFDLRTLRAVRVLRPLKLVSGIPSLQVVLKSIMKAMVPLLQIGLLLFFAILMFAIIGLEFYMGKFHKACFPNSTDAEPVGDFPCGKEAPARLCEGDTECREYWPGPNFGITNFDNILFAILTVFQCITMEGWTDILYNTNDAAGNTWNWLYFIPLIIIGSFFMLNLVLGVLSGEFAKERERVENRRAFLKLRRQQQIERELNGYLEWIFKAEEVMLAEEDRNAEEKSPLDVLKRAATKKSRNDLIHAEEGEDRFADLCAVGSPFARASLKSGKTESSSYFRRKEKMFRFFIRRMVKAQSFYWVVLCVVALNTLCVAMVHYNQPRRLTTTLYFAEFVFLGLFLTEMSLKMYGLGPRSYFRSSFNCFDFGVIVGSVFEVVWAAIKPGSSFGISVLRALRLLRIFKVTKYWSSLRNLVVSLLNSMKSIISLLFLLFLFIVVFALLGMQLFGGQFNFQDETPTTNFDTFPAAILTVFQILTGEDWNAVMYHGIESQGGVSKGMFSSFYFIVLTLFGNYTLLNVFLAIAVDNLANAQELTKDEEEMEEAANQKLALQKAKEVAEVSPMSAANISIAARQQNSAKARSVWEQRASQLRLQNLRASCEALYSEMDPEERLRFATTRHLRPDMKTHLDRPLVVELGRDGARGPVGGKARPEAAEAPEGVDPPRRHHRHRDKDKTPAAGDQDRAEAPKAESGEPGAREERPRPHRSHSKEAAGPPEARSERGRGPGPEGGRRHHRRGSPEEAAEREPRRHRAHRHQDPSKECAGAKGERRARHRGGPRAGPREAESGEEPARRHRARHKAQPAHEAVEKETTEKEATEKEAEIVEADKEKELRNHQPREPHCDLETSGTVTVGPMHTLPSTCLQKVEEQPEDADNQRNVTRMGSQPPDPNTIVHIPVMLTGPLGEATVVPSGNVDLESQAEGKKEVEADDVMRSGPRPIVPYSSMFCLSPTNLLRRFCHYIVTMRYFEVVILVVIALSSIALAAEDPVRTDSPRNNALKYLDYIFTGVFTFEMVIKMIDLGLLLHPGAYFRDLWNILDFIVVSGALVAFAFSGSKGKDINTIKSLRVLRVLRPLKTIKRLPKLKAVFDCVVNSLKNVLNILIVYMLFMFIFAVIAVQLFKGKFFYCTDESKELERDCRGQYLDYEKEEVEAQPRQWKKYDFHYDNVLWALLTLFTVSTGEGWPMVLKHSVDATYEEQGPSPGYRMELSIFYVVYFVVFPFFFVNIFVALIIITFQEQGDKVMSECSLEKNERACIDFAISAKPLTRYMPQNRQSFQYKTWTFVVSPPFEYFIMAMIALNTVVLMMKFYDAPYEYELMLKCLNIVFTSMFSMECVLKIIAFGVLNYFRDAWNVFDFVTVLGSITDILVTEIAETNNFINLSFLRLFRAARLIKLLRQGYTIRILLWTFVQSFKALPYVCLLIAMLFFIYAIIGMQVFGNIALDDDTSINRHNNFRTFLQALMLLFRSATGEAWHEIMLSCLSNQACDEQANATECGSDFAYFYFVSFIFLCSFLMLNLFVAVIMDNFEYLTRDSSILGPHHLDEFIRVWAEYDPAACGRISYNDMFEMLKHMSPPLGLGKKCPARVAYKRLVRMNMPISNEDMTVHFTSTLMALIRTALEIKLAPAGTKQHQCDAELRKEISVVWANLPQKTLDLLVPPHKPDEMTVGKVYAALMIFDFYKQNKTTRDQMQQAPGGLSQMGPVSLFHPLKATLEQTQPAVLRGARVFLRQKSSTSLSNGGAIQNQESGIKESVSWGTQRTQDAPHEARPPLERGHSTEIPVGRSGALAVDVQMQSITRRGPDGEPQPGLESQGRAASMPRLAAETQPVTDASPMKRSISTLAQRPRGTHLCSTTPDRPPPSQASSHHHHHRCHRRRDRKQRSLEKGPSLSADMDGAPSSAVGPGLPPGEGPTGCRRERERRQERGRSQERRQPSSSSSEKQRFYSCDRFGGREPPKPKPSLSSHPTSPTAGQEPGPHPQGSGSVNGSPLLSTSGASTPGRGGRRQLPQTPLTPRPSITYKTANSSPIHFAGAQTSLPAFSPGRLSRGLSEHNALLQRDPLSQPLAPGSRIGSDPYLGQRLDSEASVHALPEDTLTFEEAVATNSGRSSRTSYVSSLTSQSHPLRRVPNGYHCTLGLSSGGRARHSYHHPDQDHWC
Sequence (P54289 25-1103 partner): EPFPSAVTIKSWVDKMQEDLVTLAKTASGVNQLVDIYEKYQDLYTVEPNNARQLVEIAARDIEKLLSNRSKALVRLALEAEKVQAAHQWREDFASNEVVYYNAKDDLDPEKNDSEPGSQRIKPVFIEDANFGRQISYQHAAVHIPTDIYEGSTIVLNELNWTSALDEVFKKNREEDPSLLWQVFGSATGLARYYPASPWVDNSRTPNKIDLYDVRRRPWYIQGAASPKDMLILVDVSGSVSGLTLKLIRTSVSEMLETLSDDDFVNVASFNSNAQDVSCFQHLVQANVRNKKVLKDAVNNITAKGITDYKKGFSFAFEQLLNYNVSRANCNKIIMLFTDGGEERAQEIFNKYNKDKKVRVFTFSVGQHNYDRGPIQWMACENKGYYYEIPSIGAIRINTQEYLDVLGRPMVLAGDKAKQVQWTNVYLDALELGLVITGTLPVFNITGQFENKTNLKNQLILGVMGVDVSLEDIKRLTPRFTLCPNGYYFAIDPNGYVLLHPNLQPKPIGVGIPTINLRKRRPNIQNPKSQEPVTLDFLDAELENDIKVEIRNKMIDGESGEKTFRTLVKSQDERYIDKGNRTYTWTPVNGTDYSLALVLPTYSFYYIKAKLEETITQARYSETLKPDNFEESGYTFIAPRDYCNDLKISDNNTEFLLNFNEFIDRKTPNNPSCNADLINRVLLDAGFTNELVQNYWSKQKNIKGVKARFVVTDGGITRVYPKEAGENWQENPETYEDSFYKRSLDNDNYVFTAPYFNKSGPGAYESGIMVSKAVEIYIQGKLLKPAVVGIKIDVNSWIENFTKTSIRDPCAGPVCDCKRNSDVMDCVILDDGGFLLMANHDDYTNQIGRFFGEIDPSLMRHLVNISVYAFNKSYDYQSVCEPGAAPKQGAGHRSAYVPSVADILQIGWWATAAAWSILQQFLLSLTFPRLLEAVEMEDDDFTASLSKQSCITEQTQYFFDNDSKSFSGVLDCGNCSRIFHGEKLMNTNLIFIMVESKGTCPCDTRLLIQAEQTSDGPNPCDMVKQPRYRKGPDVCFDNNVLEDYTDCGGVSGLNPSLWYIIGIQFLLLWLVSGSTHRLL
Sequence (P54284 whole entry partner): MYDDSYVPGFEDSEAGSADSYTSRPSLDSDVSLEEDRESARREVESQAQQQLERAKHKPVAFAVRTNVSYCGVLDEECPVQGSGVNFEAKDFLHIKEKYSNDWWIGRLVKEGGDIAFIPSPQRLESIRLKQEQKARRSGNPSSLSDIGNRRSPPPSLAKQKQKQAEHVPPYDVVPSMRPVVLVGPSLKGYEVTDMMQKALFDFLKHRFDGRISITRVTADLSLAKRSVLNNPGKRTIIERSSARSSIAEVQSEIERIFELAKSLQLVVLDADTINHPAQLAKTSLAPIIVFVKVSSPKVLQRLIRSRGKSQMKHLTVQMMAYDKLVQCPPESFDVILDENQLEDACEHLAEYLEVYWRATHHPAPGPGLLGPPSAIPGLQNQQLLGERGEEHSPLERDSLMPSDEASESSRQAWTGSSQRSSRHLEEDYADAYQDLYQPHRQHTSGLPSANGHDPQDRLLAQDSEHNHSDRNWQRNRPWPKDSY
PROPERTY: IC50 (nM)

Req: In one line, give reported IC50 of the entry `O=C(N[C@H]1CC[C@H](S(=O)(=O)c2cccc(C(F)(F)F)c2)CC1)c1cc(F)cc(Cl)c1` .
Resp: 370

[A] CS(=O)(=O)c1cc(C(F)(F)F)ccc1C(=O)N[C@H]1CC[C@@](F)(S(=O)(=O)c2cccc(OC(F)(F)F)c2)CC1
[B] O=C(N[C@H]1CC[C@H](S(=O)(=O)c2cccc(C(F)(F)F)c2)CC1)c1ccc(C(F)(F)F)cn1
[C] Cn1nc(C(F)(F)F)cc1C(=O)N[C@H]1CC[C@@](F)(S(=O)(=O)c2cccc(C(F)(F)F)c2)CC1
Req: Exam item: list the entries in increasing order of IC50. Submit the labels in the order that the ranking request calls for.
Resp: C, A, B
